- Tested on: MS2 coat protein
- Procedure text: apparent KD of MS2 coat protein; designed switch direction (-1 OFF switch, 1 ON switch): 1; higher = weaker reporter binding
- Condition parameters: input ligand: microRNA oligo, concentration not stated
Is apparent KD of MS2 coat protein at least 300 nM? Then true. If not, false.

Check out these entries, answers already filled in.
{"Sequence chain": "GGUAGGUUACUACCAUACAUGAGGAUCACCCAUGUAAAUGGGAAGGAUAUGGUACCUAUUUGGUACCAGAAGGUCCAAUUAAUU [JL Fiskers NG3ss - 2 mod 3] (Eterna round: R96, puzzle: Same State NG 3)", "Category label": "true"}
{"Sequence chain": "ACCCAAAGUAUAUGGGAACAAGCUUUUUAACAUGAGGAUCACCCAUGUACUCGUCUUAUAAGCAGUCGAAAGACUGC [hsa-mir-208a sensor: 100] (Eterna round: R96, puzzle: Sensor for hsa-mir-208a)", "Category label": "false"}
{"Sequence chain": "GAAAGCAUGGGAGGAUAUAGCCUCUAUGAAAGGCUAGAAGGCCCUGGCCACAUGAGGAUCACCCAUGUGAAAUAAAUAGAAGAA [Raarceza] (Eterna round: R96, puzzle: Same State NG 1)", "Category label": "false"}
{"Sequence chain": "ACAUGAGACACAGGAUAUCAUGUACCUACAUGUGACAUGAGGAUCACCCAUGUGGUAAGUAUGACUGAGAAGGGUGAGAUAUGU [Equivalance 89 - Jieux - Same State NG 2] (Eterna round: R96, puzzle: Same State NG 2)", "Category label": "true"}
{"Sequence chain": "UGAAUAUUCACAGGAUAUGAGUUGUAAAGUGGAUCAGAAGGGUGGGUGUUUUGCACGGUGUGUUACAUGAGGAUCACCCAUGUU [SameState NG1 #24] (Eterna round: R96, puzzle: Same State NG 1)", "Category label": "false"}
{"Sequence chain": "UGAAUAGUCACAGGAUAUCAUGCGAAAAUUGCGUGAGAAGGGUGGAUGUUGUGCUCAAAGUUCUACAUGAGGAUCACCCAUGUU [SameState NG1 #43] (Eterna round: R96, puzzle: Same State NG 1)", "Category label": "false"}
{"Sequence chain": "GCUCGUACGAUGACCGACAUGAGGAUCACCCAUGUGUGUCGGUAGGAUAUCUAUAUUAAGGAUUUAGAGAAGGGCCCAACGAGC [SameState NG3 #19] (Eterna round: R96, puzzle: Same State NG 3)", "Category label": "false"}
{"Sequence chain": "UAUUAAGCUGUAGGAUAUCUAGGAUAUGGACGAGGAUCACCCGAGCAGCAUCAGCGCACCAGAGGAGAGAAGGACGCUUUGGUG [pwkr ssNG2 2F5 2FMN.23] (Eterna round: R96, puzzle: Same State NG 2)", "Category label": "true"}
{"Sequence chain": "UGGUACAUGGGAGGAUAUGGGUUGAUAACAUGAGGAUCACCCAUGUUAAAUAUGCCGAGAGGCAACUAGAAGGCCCAUGUACCU [JL SSNG1 3.00] (Eterna round: R96, puzzle: Same State NG 2)", "Category label": "true"}
{"Sequence chain": "GGAUCGUCGGCAGGAUAUGAGCAAGUGCAUCGAUCAGAAGGGUCGAGUCCUAGAAGGUAAAGCACAUGAGGAUCACCCAUGUAG [Eternabot solution 39] (Eterna round: R96, puzzle: Same State NG 1)", "Category label": "false"}

Textbook exercise: given the entry AGAGCCGGCACCGAGGAUAUUCAUAUUAAAACAUGAGGAUCACCCAUGUAGGCCAGAAGGCCUUGGGAGAAGGCGGAUCGGCUCG [Xeonanis - 7] (Eterna round: R96, puzzle: Same State 2) , state whether its apparent KD of MS2 coat protein is greater than or equal to 300 nM.
true
